Let's look at some compounds and their measured MIC.
test system: Staphylococcus epidermidis; test: Antimicrobial activity against Staphylococcus epidermidis ATCC 12228 assessed as inhibition of visible bacterial growth incubated for 18 hrs by broth-dilution method; assay type: functional
Numbered stars: 1 amine (or outer) side, 2 acyl side, 3 side chain; on linkers, the order of the positions; unused ones are H or OH. Square brackets hold non-standard residues; d marks the D form. Peptide text beside a SMILES is read from it. * marks the point of attachment. X8 = NC(=O)CN(C[C@H](Cc1ccccc1)N*)S(=O)(=O)c1cc(C(F)(F)F)cc(C(F)(F)F)c1; X4 = N[C@@H](Cc1ccccc1)CN(CC(=O)[*:2])[*:1]; X7 = O=S(=O)(c1cc(C(F)(F)F)cc(C(F)(F)F)c1)*
Expressed in µg/mL, but write only the number.

CC(C)C[C@H](NC(=O)[C@H](CC(C)C)NC(=O)[C@H](CCCCN)NC(=O)[C@H](CCCCN)NC(=O)[C@H](CC(C)C)NC(=O)[C@H](CC(C)C)NC(=O)[C@H](CCCCN)NC(=O)CN(C[C@@H](N)Cc1ccccc1)S(=O)(=O)c1cc(C(F)(F)F)cc(C(F)(F)F)c1)C(N)=O (X7-[X4]KLLKKLL-NH2)
8
CC(C)C[C@H](NC(=O)[C@H](CC(C)C)NC(=O)[C@H](CCCCN)NC(=O)[C@H](CC(C)C)NC(=O)[C@@H](N)Cc1ccccc1)C(=O)N[C@@H](CCCCN)C(=O)N[C@@H](CCCCN)C(=O)N[C@@H](Cc1ccccc1)CN(CC(N)=O)S(=O)(=O)c1cc(C(F)(F)F)cc(C(F)(F)F)c1 (H-FLKLLKK-X8)
4

Read the next record carefully.
Summary for this compound, "CC1(C)S[C@@H]2[C@H](NC(=O)[C@H](N)c3ccc(O)cc3)C(=O)N2[C@H]1C(=O)O" : MIC is 256
